Test description: soluble on expression in E. coli; label from the status in PepcDB or PDB records
Attribute measured: soluble on expression in E. coli

Example cases with answers are listed next.
{"Chain sequence": "MPPPTASTPDDSADPGPDFADVPPTDLVKVGFIFRPHGLDGELKIDPSATDDPARFEVLPTVFVGPHPRRVVRHDIASVRYQKTKRGITVILGLDGIVDRDDAEAVAKMDVFATEAALGLEDDELFADDLVGWTVVTEEGAVQGTVADFMEMPAQDLFVVRTPEDTEAMIPAIDDFIIEIDEEAERIVVRPIDGLMDALEHHHHHH", "soluble on expression in E. coli": "not soluble"}
{"Chain sequence": "MEYSRDSAEMMMETKRNVYSLEDNKIKRHKSSDLSFSSKERKDKLAERISALQQLVSPYGKTDTASVLLEGMQYIQFLQEQVKVLSAPYLQATPSTTEEEVEEYSLRSKGLCLVPLEYTSEVAQTNGADIWAPVKTPTSSHAFNLSSSNSPFQ", "soluble on expression in E. coli": "not soluble"}
{"Chain sequence": "MSLTTDVKDELSRLVVKSVSARRAEVTSLLRFAGGLHIVGGRVVVEAELDLGSIARRLRKEIFELYGYTAVVHVLSASGIRKSTRYVLRVANDGEALARQTGLLDMRGRPVRGLPAQVVGGSIDDAEAAWRGAFLAHGSLTEPGRSSALEVSCPGPEAALALVGAARRLGVGAKAREVRGADRVVVRDGEAIGALLTRMGAQDTRLVWEERRLRREVRATANRLANFDDANLRRSARAAVAAAARVERALEILGDTVPEHLASAGKLRVEHRQASLEELGRLADPPMTKDAVAGRIRRLLSMADRKAKVDGIPDTESVVTPDLLEDAEGHHHHHH", "soluble on expression in E. coli": "soluble"}
{"Chain sequence": "MKPDIYALLERALLSGDPDEKGRLTDEAFAAVQNMDGAETNTPPLDFPRAGRPDKPVLVAPSQLTPRKMNTTEGYAAMLHAIAHIEFNAVNLALDAAYRFRTLPFQFVRDWVKVAKEEVYHFRLMRERLRAFGFDYGDFEAHNHLWDMAYKTAYDPLLRMALVPRVLEARGLDVTPGIRAKVAQRGDSETCGVLDIIYRDEVGHVAIGNRWYQHLCRERGLEPIALFRSLIARYDMFIFRGYVNIEAREKAGFSRFELDMLEDFEQSLKQNKNTVMGHHHHHHSH", "soluble on expression in E. coli": "soluble"}
{"Chain sequence": "EREEEPAVQGNPDESLTVEGALEYVELAPQLNLPQQEEDADFHTVAGLIMEELQTIPDVGDFADFHGWRFEVVEKEGQRIERVKITKLP", "soluble on expression in E. coli": "soluble"}
{"Chain sequence": "MAHHHHHHMYAGFPRLNVTEAQETVDLDFELTNEKGCVKVTEFPVPKVVNLSFPAVCALLYNARTATSSRNIFGSVIGLQLQDTVEVTDVKTNPSIDIEEDDRMTEEERMERVRKERKLLDADKAIFENMYNQENLDTNVIGQFVVSSARFNPFSTRTMRKLQELHRESLPAILLTYDPFRTGLLGRPHIRAYTPTAAYYKYDSLVSTERGYQRRRSLAQYAKESGITKEGVLHEIPVKLEVDAFHKLNLMNVPPTAVGDSFKAIQSMAVSNYIEALLSSIRNNTDQLKQKLDYEGNVKDNGNVPVGQDAETMLLMKHVRDQTDHLDALCDSALLYSSLLRDL", "soluble on expression in E. coli": "soluble"}
{"Chain sequence": "MIKIDNVKKFYTDKVKIGPLDIEIPKAGFTSLIGPNGAGKSTTLLMIGRLLDMDEGQIQVANMDVSESKSKDLAKVLTILRQENHFVTRLTVRQLVGFGRFPYSKGRLTKEDEVIISKYIDFLDLTNLENRYLDELSGGQRQRAYVAMVLCQETEYVLLDEPLNNLDVARSVQMMEHLRRAANEFGRTILTVMHDINFAAKYSDKICAMKDGQIAAFGTVEEVMDSTLLTDIFETRIEIIKGPYGPIAVY", "soluble on expression in E. coli": "not soluble"}
{"Chain sequence": "VKNFEWKTIFNWSKNNSMVESLPEGIDKIQIGSGVYNVKSYAEVGKPYGAIYAKTFKRDAEGYILCQLDGSPKEGQDYEYLGCVQADWRGGWNNVFRLGNFSFSVMFDFQKGGKFFSQTSIQSSVDGQSVKSLEGRDADFFSRKILGESDEERYGFMRPQNANTPTANGQIYPDWGRPKGVVLPNCRYDEDVEGLAGQQVLGYCTPERYWMHYTSRDISRFIYDASYVKLREITVSYDLPKKWLRKTPFQTFRVAAVGRNIATLFANTPHGLDPQATSTTGNAQGFERGFNLPSATYGFDIKVSF", "soluble on expression in E. coli": "not soluble"}

Q: Name the recorded soluble on expression in E. coli for `MLPKRNSGDNELYTNREKRKKMTSYIADSAVFIMGNCGVDSSLLITVPSVADELKSRDSMLRFDLAKEEGLRVEWPEPEMVKEVRKKAEQTRDSEELSKTDLEILAKALEHRETAVLLTDDYAVQNVAVQLGIQVKPIAQKKIKDVLIWQKQCTGCKKTFDKGDECPICGSPLKKKRKRKLKGKGYRESLEHHHHHH` .
Result: not soluble

Q: Name the recorded soluble on expression in E. coli for `MVATVVNVQVKNEEKIETAPKKVVFDTKNLNLWYGEDHALKDINLSIHENEVTAIIGPSGCGKSTYLKTLNRMVELVPIVRTTGVIEYRERNIFDKSYPVEELRTHVGMVFQKPNPFPKSIYENVAYGPKIHGISDKKTLDEIVEKSLRGAAIWDELKDRLHDNAYGLSGGQQQRLCIARCLAIEPDVILMDEPTSALDPISTLKVEELIQELKKDFSIVIVTHNMQQAARISDKTAFFLSGEVVEYTDTNKLFTTPSDKRTEDYITGRFG` .
Result: not soluble

Q: Name the recorded soluble on expression in E. coli for `MGSDKIHHHHHHMKLSFEVLEALDAIDRAGTFAEAAVLIHRVPSALSYLVQKAESDLGVILFDRSGRRAQLTEAGRLLVEDGRRLLQAGRELESKVRGVHAGWEAELRLCLDEILPLPSLWPHVRAFYDMELTTRLRLSTEVLGGVWDALVTGRADIAIGAAGEPPHAPNIAARPIGLLRHVFVVAPHHPLAAVEQPLDSDTISSHRGVIISDTSRALEPRSVAIHDGQPVIIVPTLAAKLDLLCEGMAVGMLPAPVVEEAIRQGKLVERRVIGVRDHTTCYLGWREDKTGRALKWWINRLDQIDLISTLFSTRGVAA` .
Result: not soluble

* * *

Test description: soluble on expression in E. coli; label from the status in PepcDB or PDB records

{"Chain sequence": "MHHHHHHSSGVDLGTENLYFQSMNNVEKPDNDEDESEVPSLPLGLTGAFEDTSFASLCNLVNENTLKAIKEMGFTNMTEIQHKSIRPLLEGRDLLAAAKTGSGKTLAFLIPAVELIVKLRFMPRNGTGVLILSPTRELAMQTFGVLKELMTHHVHTYGLIMGGSNRSAEAQKLGNGINIIVATPGRLLDHMQNTPGFMYKNLQCLVIDEADRILDVGFEEELKQIIKLLPTRRQTMLFSATQTRKVEDLARISLKKEPLYVG", "soluble on expression in E. coli": "soluble"}
{"Chain sequence": "MSLRDSRYYCRLFSPAAVRGGIRRISAIYLNPSAFMSSLPITDRKIRFGLVGCGRISKNHIGAIAQHGDRAELVEICDTNPEALQAAEAATGARPFSSLSDMLAQGNADALVLATPSGLHPWQAIEVAQAGRHVVSEKPMATRWEDGKRMVKACDEAGVRLFVVKQNRRNATLQLVKKAIEQGRFGRIYMVTVNVFWTRPQEYYDAARWRGKWEWDGGAFMNQASHYVDLLDWLVGPVESVYAYTATLARRIEAEDTGVAALRWRHGAMGSINVTMLTYPQNLEGSITILGEKGTVRVGGVAVNRIDEWKFAEPHPDDDKIREANYETTSVYGFGHPLYYDNVINCLRGDCEPETDGREGLQSLALLTAIYRSARDGVRIPLPLDEGHHHHHH", "soluble on expression in E. coli": "soluble"}

* * *

Test description: soluble on expression in E. coli; label from the status in PepcDB or PDB records
Attribute measured: soluble on expression in E. coli

Example cases with answers are listed next.
{"Chain sequence": "MLKLLIVDDAMFMRTMIKNIVKDSDFEVVAEAENGLEAVKKYDEVKPDIVTLDITMPEMDGLEALAQIMAKDPSAKVIMCSAMGQQGMVVDAIKKGAKDFIVKPFQADRVLEALEKAAK", "Endpoint value": "not soluble"}
{"Chain sequence": "MSLELNGRALSSTIAPRTQAQRILQTQKISSTDLVVVIGLGNPHLIFEVHKSLEPGQVLLLVDEYPELIFPLWDGILEPVMDVPGRHLFLGHSALNLLWNYLESLPVERVSGIRVFRNTASTALNETYYSDLEIKIRKILSSKMSDLLTKFEFERIWVRNTFVNTANFPDSKNPRTRIESLKGKFLDTPAMLVSAGPSLRSQCEWISKVRDKVFLFSCDTSFKALLKFGIVPDGVITLDAQTHSFFHFMGAESSNVPLFADLVSSPSILRSQKFTKIVHSLSAKYVVDASGEFKREVTAGSKTAEKLLGPIGDIQSGGSVATTAFDLLRNLGCKPIFLVGQDLAYSGREEGHHHHHH", "Endpoint value": "not soluble"}
{"Chain sequence": "MGHHHHHHSHMRCQESMSAVLTAEQALKLVGEMFVYHMPFNRALGLELERYEKAFAQLAFNNQPMMVGNWAQSILHGGVIASALDVAAGLVCVGSTLTRHETISEDELRQRLSRMGTIDLRVDYLRPGRGNRFTATSSLLRAGNKVAVARVELHNEDQLYIASATATYMVG", "Endpoint value": "not soluble"}
{"Chain sequence": "MSLTDIRDHRDMLTVHHLNNSRSQRVLWLLEELDTPYEIKRYQRQPDMMAPKELRAVHPLGKSPVITDNGNTIAESGAIIEYIVGTYGNGRLIPPPNTPERLRYTYWLHYAEGSAMPPLLLKLLFSMMPQRAPALVRPLVKMVASGALTGFVDPQLKLHMDYWESELGKAAYFAGDEFTAADIQMSFPLEAAAARGGLDQRYPKAQAWLERIHARPAYNRALEKGGPYEIGKAEGHHHHHH", "Endpoint value": "soluble"}
{"Chain sequence": "MEGVKKIKNPSTVKDELLELMFRIYRSTNGKYPALEWVKRKPNPNDFNGFREVYEPFLKFRLSQEFDELYTYQKDNRIIGTIALVYKRIKEKGIWWVPEELMNEKVGLIEFFVVDPEFQGKGIGSTLLEFAVKRLRSLGKDPYVVTFPNLEAYSYYYMKKGFREIMRYKEFVILKFNHKKFQLEHHHHHH", "Endpoint value": "soluble"}
{"Chain sequence": "MSRFLISSFILIAFVLQFGEGSIAVQEVKDGEKVQIELFKGAKAIQRSVDAGEQIFHFEGENKGVFVDANGKAIDSSNYEENNGHLVIKKFTKADVGSYSEYPTKIIKTKTDHGFSGVAAPVLKLSLQ", "Endpoint value": "soluble"}
{"Chain sequence": "MLFCTNIAIAQGTIEDYRRAYSAGEKFSANKVSYSNVNPEWIGKTHYFWYVRNTPDGRIYVLVDADTQNRKDLFDHKLVAAALSEASGRKIEATSLYLDRLSVNNGLDTLHFVFNNHRWMYVIDKNQLTDEGALPTPRKQRHWMETDDEKTAAPVTSPDKKYTAFIKNHNIYVKETATGKEKQLSLDGTLGNYYSAYIRWSPDSKKSLPARFVR", "Endpoint value": "not soluble"}
{"Chain sequence": "MSLSQNSESGNYRKYTSRNPLMGIVVSGFMKDLSETIAPLEEVGSIIDIGCGEGFIINCLNRKDITGVDVSKKALNIAKQKNPGCNFCTGSIYDLSFKKSSFDLVIATEVLEHLENPERALREIKRISKKYCIFSVPNEPYFRTMNFLRGKNLTRLGNDIEHLQNWSTKEFVKLVGRHFNVVEVKRPFPWTMVLCEKEGHHHHHH", "Endpoint value": "not soluble"}
{"Chain sequence": "MGHSQSYDLRNPEGGEKTPVRGVRRVSREHQTDAQFSTETAEPFDFREDELRDRIRREQLRKREVELETLRIRQHESREPIIDAYRQNQPAPQGNLYNEFNHYDSMKHASPSDPATYFALKPMTEVNEGRQFSIPTSSTRRYDQVPIDPSPELQRREVPSKQSPPNYPKRSSVFGGRVSPLPRQSEVDPHPMPRYIPPMSPSNPIDDVPPTHVSELHAEKRMIVGIDDELQPEKNNVTYVTVATAAIDNELLHRHPEVGRHPVYVLPAQTSYGASAKRRSSDDEAKNVLPPQNCTVEHCTHVAVNDGSPVVIRKRASQDSIRDKENRLTIPINEDDTENVGEGTNYQNVSKKCFEERLHYDSYMPTLSLRQRPVVSFYDKLH", "Endpoint value": "not soluble"}
{"Chain sequence": "MAHHHHHHMLWAIKHTDYPTMSTGLETLDLFLENVSKSEYAEVFFKAYMQRILVDVMVASMDSLHASGFQHHVRILQKLFNVSSMVPPDTPTIGKDVIRAYLLDSLTVIPTLTTTSILSFVDTCYESFTDDERFRTQFADFLIEVKVWGAEQENKMQEEDERRLREETIPGFSNLSMEIRRQTCSPPSDPGRCADGQGRGPASVRRFHCRRHRHPSKYTCTPLSLFPLKNPSADPAVRDVRPSYFVDCVGG", "Endpoint value": "not soluble"}

Q: Name the recorded soluble on expression in E. coli for `MTDQGLEGSNPVDLSKHPSGIVPTLQNIVSTVNLDCKLDLKAIALQARNAEYNPKRFAAVIMRIREPKTTALIFASGKMVCTGAKSEDFSKMAARKYARIVQKLGFPAKFKDFKIQNIVGSCDVKFPIRLEGLAYSHAAFSSYEPELFPGLIYRMKVPKIVLLIFVSGKIVITGAKMRDETYKAFENIYPVLSEFRKIQQ` .
Result: soluble

Q: Name the recorded soluble on expression in E. coli for `MGSSHHHHHHDYDIPTTENLYFQGHMATNLKSTAKLVKPIQYDEVIEVERIFADPAFIEQHRQRILASFKDAKESALYHELTHIVIKDNLFSCAMNAIVGYFEFNIDEAELKNVMEGLKRDVIQGAEDNTVQAIAEKIIKKALVFNHLQKEWKVEITDEVVKNVISLYYEKTNQSVREYLDDKQKFEGVRTALLEERMVLETINHFKFHFNLTGQLPN` .
Result: soluble

Q: Name the recorded soluble on expression in E. coli for `KLVFLHGLGQDKTAWNDVIAALPHYDCLALDLFDEGKMPENFTTLVEQVATELKGIEEDFVLIGLSLGAMLALALSDYTFPHIKGFIVSGAQHDLKRSFLYKLQLLGLQLLPKSFFKKQGVKKDSFLAFSKSLSTLDLRETIRQIDIPALILCGQKDKPNLLPARKIAELIPNARLSVIKKGGHLLNTKMPIVFAKEITDFLK` .
Result: not soluble
